Reported values of TGI for individual entries
Tested on: HCT-116 colon
Assay: NCI tumour cell line growth inhibition, 48 h

Cc1cc(-c2ccccn2)cc(C)c1/C=C/c1cncc(-c2nn[nH]n2)c1 | > 25 µM

Query block: Recorded TGI of O=C(Nc1cccc(-c2ccc(Cl)c(C(F)(F)F)c2)c1)C1CCN(Cc2cccc3cccnc23)CC1 , please.
Result block: 2.76 µM

Query block: C/C(=C\c1cc(C(F)(F)F)n(-c2ccc(N)cc2)n1)[C@@H]1C[C@@H]2O[C@]2(C)CCC[C@H](C)[C@H](O)[C@@H](C)C(=O)C(C)(C)[C@@H](O)CC(=O)O1 ?
Result block: > 5.49 µM

Query block: Try this compound next: C/C=C1\CN2CCc3c([nH]c4ccccc34)C2C=C1CCO (stereo not drawn)
Result block: > 340 µM

Query block: Field entry: CC(=O)OCC1OC(O[C@@H]2C[C@H]3C(C)(C)[C@@H](OC(C)=O)CC[C@]3(C)[C@H]3CC[C@]45C[C@]4(CC[C@H]5[C@@H](C)C[C@@H](O)[C@H](O)C(C)(C)F)[C@@]32C)C(O)C(O)C1O (stereo partly drawn)
Result block: 2.95 µM

Query block: Now consider Oc1c(Br)cc(/C=C/c2cccc(/C=C/c3cc(Br)c(O)c(Br)c3)n2)cc1Br and answer again.
Result block: 21 µM

Query block: Subsequent entry: COC(=O)c1cc2c3ccccc3[nH]c2c2sccc12
Result block: > 100 µM

Query block: What do you have for CCCCCCCCCCCCCCCCCCNc1nc(=O)n(C2CC(O)C(COP(=O)(O)OCC3OC(n4ccc(N)nc4=O)C(O)C3O)O2)cc1F (stereo not drawn) ?
Result block: > 100 µM
